- Tested on: SN12C renal
- Test: NCI tumour cell line growth inhibition, 48 h
Each record here notes measured TGI.

Examples with their reported TGI follow.
Compound	TGI
O=C1c2ccccc2C2(O)c3cc4ccccc4cc3OC12O (configuration not stated)	> 100 µM
COc1ccc2oc(-c3cccnc3)cc(=O)c2c1	> 100 µM
COc1ccccc1N1CCN(CCCn2c(=O)c3c(OC)nc(C)cc3c(=O)n2-c2ccccc2)CC1	> 100 µM
O=c1n(-c2ccccc2)c(=O)n2n1C1C=CC2C2C(C1)C2(Cl)Cl (configuration not stated)	> 100 µM
CCSc1[nH]c(Nc2nc(-c3ccccc3)n(-c3ccccc3)n2)c(C(N)=O)c1C(N)=O	> 10 µM

Problem: Endpoint output: TGI of `COc1ccc(C(=O)/C=C/c2ccncc2)cc1OC` . Value?
Solution: 29.2 µM

Problem: Endpoint output: TGI of CCOC(=O)c1cc(C2(O)CCN(CC(C)CC)C2=O)c(-c2cc(C)no2)[nH]1 (configuration not stated) . Value?
Solution: > 100 µM
